Would you kindly list self-splicing fitness (ln) for each of these sequences?
Assay: self-splicing fitness, log relative to wild type (ln ratio); higher = more splicing; Tetrahymena group I intron in knt gene, E. coli kanamycin selection, DiMSum; sequences stand for … in CUCUCU…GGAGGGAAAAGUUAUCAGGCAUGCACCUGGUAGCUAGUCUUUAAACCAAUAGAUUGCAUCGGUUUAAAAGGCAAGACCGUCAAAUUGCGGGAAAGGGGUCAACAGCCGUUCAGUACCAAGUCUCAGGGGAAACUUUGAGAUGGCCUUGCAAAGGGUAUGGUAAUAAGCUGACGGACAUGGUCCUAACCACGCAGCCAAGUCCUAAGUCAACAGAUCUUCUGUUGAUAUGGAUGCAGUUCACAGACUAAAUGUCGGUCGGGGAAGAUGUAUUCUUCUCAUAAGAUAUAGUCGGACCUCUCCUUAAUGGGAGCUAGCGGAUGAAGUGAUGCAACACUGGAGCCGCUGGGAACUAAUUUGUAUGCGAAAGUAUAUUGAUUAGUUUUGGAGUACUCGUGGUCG;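 further: selection with 25 µg/mL kanamycin versus none on LB agar overnight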
Details: 30 °C

Recorded results for 3 sequences are shown here.
INSERT INTO measurements (input_sequence, parameter_measured, experimental_result) VALUES
  ('CUCAAGCAAUAUUACGAACG', 'self-splicing fitness (ln)', -1.54),
  ('GUUAAGCAAUAUUACGUUAU', 'self-splicing fitness (ln)', -1.62),
  ('CGGUAGCAAUAUUACGCCUA', 'self-splicing fitness (ln)', -0.535);

Items follow; give self-splicing fitness (ln) for each.
1. CAGUAGCAAUAUUACGGCCA
2. AUACAGCAAUAUUACGAGGA
3. CCCGAGCAAUAUUACGCGUU
4. ACACAGCAAUAUUACGCAGA
5. CAGCAGCAAUAUUACGAUAC
6. AGCUAGCAAUAUUACGGCAU
7. CCUCAGCAAUAUUACGUACA
8. UUUGAGCAAUAUUACGCGAA

**Result**
1: -1.17; 2: -3.26; 3: -4.43; 4: -2.48; 5: -3.52; 6: -0.602; 7: -3.73; 8: -2.96

Items follow; give self-splicing fitness (ln) for each.
1. CAUGAGCAAUAUUACGAUUG
2. ACGCAGCAAUAUUACGCCGG
3. UUACAGCAAUAUUACGAUAG
4. GACGAGCAAUAUUACGAAUG
5. AGCGAGCAAUAUUACGCCUU
6. CCUAAGCAAUAUUACGUUGG
7. AUGUAGCAAUAUUACGUAGU

**Result**
[-4.17, -2, -0.427, -3.03, -1.94, -3.45, -2.89]

Items follow; give self-splicing fitness (ln) for each.
1. CGGUAGCAAUAUUACGCUCU
2. CGAUAGCAAUAUUACGUCGC
3. UUCUAGCAAUAUUACGCGGA
4. CGAGAGCAAUAUUACGUCCU
5. CUGCAGCAAUAUUACGGCGG

**Result**
1. -2.71
2. -3
3. -3.93
4. -2.98
5. -3.57

Items follow; give self-splicing fitness (ln) for each.
1. GUCUAGCAAUAUUACGUCUA
2. AACUAGCAAUAUUACGUCAC
3. ACUGAGCAAUAUUACGUCUU
4. UUCUAGCAAUAUUACGUAAG
5. GGGAAGCAAUAUUACGCGAG

**Result**
1. -1.33
2. -2.87
3. -2.57
4. -2.51
5. -1.06
